The measurements presented in this section are drawn from ChEMBL document CHEMBL1141147.

TEST TARGET: Prostacyclin receptor (Homo sapiens, UniProt P43119)
Sequence (P43119 whole entry): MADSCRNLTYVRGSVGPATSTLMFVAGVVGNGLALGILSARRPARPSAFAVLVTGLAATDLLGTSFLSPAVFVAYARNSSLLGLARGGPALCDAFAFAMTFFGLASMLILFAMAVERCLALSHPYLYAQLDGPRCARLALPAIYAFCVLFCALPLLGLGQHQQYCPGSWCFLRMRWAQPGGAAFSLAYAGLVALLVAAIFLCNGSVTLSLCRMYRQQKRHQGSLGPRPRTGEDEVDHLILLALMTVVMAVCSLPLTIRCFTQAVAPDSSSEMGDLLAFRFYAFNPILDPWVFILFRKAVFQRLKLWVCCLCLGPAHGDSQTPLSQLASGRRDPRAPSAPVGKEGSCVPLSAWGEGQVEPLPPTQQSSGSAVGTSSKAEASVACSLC
ATTRIBUTE MEASURED: Ki (nM)
Hi! Could you send only the number? It should be in nM, unit omitted.

q: Look at this molecule and give its reported Ki. O=C(O)COc1cccc2c(CCSCC(c3ccccc3)c3ccccc3)coc12
a: 80

q: Would you kindly share the measured Ki for O=C(O)COc1cccc2c(CCSCCC(c3ccccc3)c3ccccc3)coc12 ?
a: 560

q: What value of measured Ki is listed for CCC(SCCc1c(CO)oc2c(OCC(=O)O)cccc12)(c1ccccc1)c1ccccc1 ?
a: 3400

q: Could you share which Ki value was measured for CC(SCCc1c(CO)oc2c(OCC(=O)O)cccc12)(c1ccccc1)c1ccccc1 ?
a: 530

q: Field request: Ki | item: O=C(O)COc1cccc2c(CCSC(c3ccccc3)c3ccccc3)c(CO)oc12
a: 750

q: Look up Ki for this molecule: CC(SCCc1c(CCCO)oc2c(OCC(=O)O)cccc12)(c1ccccc1)c1ccccc1
a: 5800

q: Quick check: Ki of O=C(O)COc1cccc2c(CSCCC(c3ccccc3)c3ccccc3)coc12 ?
a: 580

q: Fill blank: measured Ki of the molecule CC(SCCc1coc2c(OCC(=O)O)cccc12)(c1ccccc1)c1ccccc1 is ____.
a: 570

q: Look at this molecule and give its reported Ki. O=C(O)COc1cccc2c(CCCSC(c3ccccc3)c3ccccc3)coc12
a: 270

q: Dear colleague, I am looking for the recorded Ki of the following molecule: O=C(O)COc1cccc2c(CSC(c3ccccc3)c3ccccc3)coc12
a: 4700

q: Entry O=C(O)COc1cccc2c(CCSC(c3ccccc3)(c3ccccc3)C(F)(F)F)c(CO)oc12 has what Ki?
a: 760

====

TEST TARGET: Thromboxane A2 receptor (Homo sapiens)
Sequence (P21731 whole entry): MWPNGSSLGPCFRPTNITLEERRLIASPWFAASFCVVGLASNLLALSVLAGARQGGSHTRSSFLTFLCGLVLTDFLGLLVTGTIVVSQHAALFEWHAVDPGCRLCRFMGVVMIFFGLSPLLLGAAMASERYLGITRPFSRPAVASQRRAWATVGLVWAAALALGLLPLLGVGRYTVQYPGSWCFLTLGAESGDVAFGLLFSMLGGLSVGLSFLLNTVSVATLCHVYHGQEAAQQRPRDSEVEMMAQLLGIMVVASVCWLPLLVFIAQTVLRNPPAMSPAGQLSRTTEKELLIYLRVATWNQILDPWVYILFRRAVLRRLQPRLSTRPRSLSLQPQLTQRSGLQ
The label is met for Ki below 300 nM and not met for Ki equal to or exceeding 300 nM.

q: Please check: Ki for O=C(O)COc1cccc2c(CCCSCCC(c3ccccc3)c3ccccc3)coc12 , strictly under 300 nM or not?
a: not met

q: Check if Ki falls below 300 nM for O=C(O)COc1cccc2c(CCSC(c3ccccc3)c3ccccc3)coc12 .
a: not met

q: # TODO verify Ki < 300 nM strictly for this compound: O=C(O)COc1cccc2c(CCSC(c3ccccc3)c3ccccc3)c(CO)oc12
a: met

q: Hello, is Ki of the following compound strictly smaller than 300 nM? O=C(O)COc1cccc2c(CSCCC(c3ccccc3)c3ccccc3)coc12
a: not met

q: API: query returns whether the compound falls strictly under 300 nM in Ki. Query: CCCC(SCCc1c(CO)oc2c(OCC(=O)O)cccc12)(c1ccccc1)c1ccccc1
a: not met

q: Here's an entry: CC(c1ccccc1)(c1ccccc1)S(=O)(=O)CCc1c(CO)oc2c(OCC(=O)O)cccc12 . Is its Ki below 300 nM?
a: met

q: Report whether reported Ki is lower than 300 nM (strictly) for O=C(O)COc1cccc2c(CCCSC(c3ccccc3)c3ccccc3)coc12
a: not met

q: Dear colleague, could you confirm whether Ki of CC(c1ccccc1)(c1ccccc1)[S+]([O-])CCc1c(CO)oc2c(OCC(=O)O)cccc12 (stereo not given) falls below 300 nM? Thanks.
a: met

q: Please let me know if O=C(O)COc1cccc2c(CSC(c3ccccc3)c3ccccc3)coc12 shows Ki below 300 nM.
a: not met

q: Please state whether Ki is below 300 nM for O=C(O)COc1cccc2c(CCSC(c3ccccc3)(c3ccccc3)C(F)(F)F)c(CO)oc12
a: met
